- assay-explanation: Fluorescence emission spectrum and Stokes shift
- Format: physicochemical
- test-parameters: excitation at 345 nm, 20 μM
Here, each record is paired with measured fluorescence emission intensity data.
experimental-endpoint: fluorescence emission intensity

* CC1(C)CCc2c(c3ccccc3c3nc[nH]c23)O1 [IM1] | 6.90 × 10^4 au
* CN(C)c1ccc(-c2nc3c([nH]2)c2c(c4ccccc43)OC(C)(C)CC2)cc1 [IM5] | 7.04 × 10^5 au
* CC1(C)CCc2c(c3ccccc3c3nc(-c4ccccc4)[nH]c23)O1 [IM2] | 2.49 × 10^6 au
* N=C(N)c1ccc(-c2cc3ccc(C(=N)N)cc3[nH]2)cc1 [DAPI, 4′,6-diamidino-2-phenylindole, reference compound] | 1.13 × 10^5 au
* CC1(C)CCc2c(c3ccccc3c3nc(-c4cccc5ccccc45)[nH]c23)O1 [IM3] | 1.41 × 10^6 au
* CC1(C)CCc2c(c3ccccc3c3nc(-c4ccc(O)cc4)[nH]c23)O1 [IM4] | 1.36 × 10^6 au
